The entries below are paired with their reported viability, T/C.
System: 485176-168-R4-J1-PDC complex spheroid growth
Experiment notes: Anticancer human tumor 485176-168-R4-J1-PDC patient-derived pancreatic adenocarcinoma cell line growth inhibition [RAS]
Conditions used: second compound 0.000949 µM; first compound 0.0316 µM; stronger effect = lower value
API: value field is a number in %; no unit string.

| Molecule | viability, T/C (%) |
| --- | --- |
| NC1c2ccccc2OC12CCN(c1cnc3c(N4CCCc5ncccc54)n[nH]c3n1)CC2 (configuration not stated) + CCn1c(-c2cccnc2C(C)OC)c2c3cc(ccc31)N1CCOC(CC(NC(=O)C(C(C)C)N(C)C(=O)C3(F)CCN(C(=O)C#CC(C)(C)N(C)C)CC3)C(=O)N3CCCC(N3)C(=O)OCC(C)(C)C2)C1 | 91.4 |

Request: Look at this molecule and give its reported viability, T/C. CC1(O)CCCC1n1c(=O)c(C(F)F)cc2cnc(NC3CCN(S(C)(=O)=O)CC3)nc21 (configuration not stated) + CCn1c(-c2cc(N3CCN(C)CC3)cnc2C(C)OC)c2c3cc(ccc31)-c1csc(n1)CC(NC(=O)C1CC1C)C(=O)N1CCCC(N1)C(=O)OCC(C)(C)C2
Result: 81.1

----------
System: 485176-168-R4-J1-PDC complex spheroid growth
Experiment notes: Anticancer human tumor 485176-168-R4-J1-PDC cell line growth inhibition [RAS];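 also: spheroids exposed to compounds for seven days before readout; luminescence viability expressed relative to DMSO vehicle wells set as 100%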
Conditions used: second compound 0.00316 µM; first compound 0.1 µM; stronger effect = lower value
Source text: RAS pathway inhibitors in Combinations in Complex Spheroids A high-throughput screen of multi-cell type tumor spheroids was designed to identify active combinations of RAS pathway inhibitors and targeted small molecules. Complex spheroids include a stromal component modeled by human endothelial cells (HUVEC) and fibroblasts modeled by human mesenchymal stem cells (MSCs). […] Compounds. […] If the clinical Cmax for an agent had not been determined, the highest concentration tested was 10 microM. […]
Overview of recorded viability, T/C for various compounds
Kindly answer with a numeric value in %, unit omitted.

| Compound | Tested system | Measurement |
| --- | --- | --- |
| CC1(O)CCCC1n1c(=O)c(C(F)F)cc2cnc(NC3CCN(S(C)(=O)=O)CC3)nc21 (stereo not drawn) + C=CC(=O)N1CCN(c2nc(OCC3CCCN3C)nc3c(F)c(-c4nc(N)cc(C)c4C(F)(F)F)c(Cl)cc23)C(C)C1 | 485176-168-R4-J1-PDC complex spheroid growth | 77.5 |

Request: // map CCN1CCN(Cc2ccc(Nc3ncc(F)c(-c4cc(F)c5nc(C)n(C(C)C)c5c4)n3)nc2)CC1 + C=CC(=O)N1CCN(c2nc(OCC3CCCN3C)nc3c(F)c(-c4nc(N)cc(C)c4C(F)(F)F)c(Cl)cc23)C(C)C1 to recorded viability, T/C (system: 485176-168-R4-J1-PDC complex spheroid growth)
Result: 88.7

Request: Moving on to the next compound: CC(Nc1ccc2c(c1)OCCn1cc(N3C(=O)OCC3C(F)F)nc1-2)C(N)=O (stereo not drawn) + C=CC(=O)N1CCN(c2nc(OCC3CCCN3C)nc3c(F)c(-c4nc(N)cc(C)c4C(F)(F)F)c(Cl)cc23)C(C)C1
Result: 83.3

----------
Tested on: 485176-168-R4-J1-PDC complex spheroid growth
Experiment notes: Anticancer human tumor 485176-168-R4-J1-PDC cell line growth inhibition [RAS];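 also: spheroids exposed to compounds for seven days before readout; luminescence viability expressed relative to DMSO vehicle wells set as 100%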
Conditions used: second compound 1 µM; first compound 0.0316 µM; stronger effect = lower value
Listed molecules paired with reported viability, T/C
Give the value in % but do not write % after it.

The examples below pair each entry with its known result.
| Molecule | viability, T/C (%) |
| --- | --- |
| CC(Nc1ccc2c(c1)OCCn1cc(N3C(=O)OCC3C(F)F)nc1-2)C(N)=O (stereo not drawn) + C#Cc1c(F)ccc2cc(O)cc(-c3ncc4c(N5CC6CCC(C5)N6)nc(OCC56CCCN5CC(F)C6)nc4c3F)c12 | 107 |
| CC(C)n1nc(-c2ccc3oc(N)nc3c2)c2c(N)ncnc21 + C=CC(=O)N1CCN(c2nc(OCC3CCCN3C)nc3c(F)c(-c4nc(N)cc(C)c4C(F)(F)F)c(Cl)cc23)C(C)C1 | 42.5 |
| NC1c2ccccc2OC12CCN(c1cnc3c(N4CCCc5ncccc54)n[nH]c3n1)CC2 (stereo not drawn) + C#Cc1c(F)ccc2cc(O)cc(-c3ncc4c(N5CC6CCC(C5)N6)nc(OCC56CCCN5CC(F)C6)nc4c3F)c12 | 78.6 |
| Nc1ccn(C2OC(CO)C(O)C2(F)F)c(=O)n1 (stereo not drawn) + C#Cc1c(F)ccc2cc(O)cc(-c3ncc4c(N5CC6CCC(C5)N6)nc(OCC56CCCN5CC(F)C6)nc4c3F)c12 | 17.8 |

Request: Fill blank: measured viability, T/C of the molecule CC(C)n1nc(-c2ccc3oc(N)nc3c2)c2c(N)ncnc21 + C#Cc1c(F)ccc2cc(O)cc(-c3ncc4c(N5CC6CCC(C5)N6)nc(OCC56CCCN5CC(F)C6)nc4c3F)c12 is ____.
Result: 51.9

Request: Then what about the molecule C[C@@H](NC(=O)c1ncnc(N)c1Cl)c1ncc(C(=O)Nc2cc(C(F)(F)F)c(Cl)cn2)s1 + C#Cc1c(F)ccc2cc(O)cc(-c3ncc4c(N5CC6CCC(C5)N6)nc(OCC56CCCN5CC(F)C6)nc4c3F)c12 ?
Result: 84.8

Request: Same read-out for CC(C)NCC(C(=O)N1CCN(c2ncnc3c2C(C)CC3O)CC1)c1ccc(Cl)cc1 (stereo not drawn) + C#Cc1c(F)ccc2cc(O)cc(-c3ncc4c(N5CC6CCC(C5)N6)nc(OCC56CCCN5CC(F)C6)nc4c3F)c12 ?
Result: 92.2

Request: Now the molecule CC(=O)OC12COC1CC(O)C1(C)C(=O)C(O)C3=C(C)C(OC(=O)C(O)C(NC(=O)OC(C)(C)C)c4ccccc4)CC(O)(C(OC(=O)c4ccccc4)C21)C3(C)C (stereo not drawn) + C=CC(=O)N1CCN(c2nc(OCC3CCCN3C)nc3c(F)c(-c4nc(N)cc(C)c4C(F)(F)F)c(Cl)cc23)C(C)C1
Result: 12.6
